For each entry below, report its relative viability value.
Test system: NCI-H1666
ASSAY_PROTOCOL: relative viability (nuclei count vs DMSO), 5 days (fraction); higher = more cells survive
MEASUREMENT_CONDITIONS: first compound 0.5 µM
Returns: the value as a bare number; no unit string appended.

Measured relative viability for this entry Nc1ccn([C@@H]2O[C@H](CO)[C@@H](O)[C@@H]2O)c(=O)n1 [Cytarabine] + CC1(C)CCC(c2ccc(Cl)cc2)=C(CN2CCN(c3ccc(C(=O)NS(=O)(=O)c4ccc(N[C@H](CCN5CCOCC5)CSc5ccccc5)c(S(=O)(=O)C(F)(F)F)c4)cc3)CC2)C1 [Navitoclax] (partner 0.5 µM) on NCI-H1666: 0.355

Field relative viability (system: NCI-H1666) for entry COc1cc2nccc(Oc3ccc(NC(=O)Nc4cc(C)on4)c(Cl)c3)c2cc1OC [Tivozanib] + Nc1ncn([C@H]2C[C@H](O)[C@@H](CO)O2)c(=O)n1 [Decitabine] (partner 2 µM) = 0.643

Noted relative viability for COc1cc2nccc(Oc3ccc(NC(=O)Nc4cc(C)on4)c(Cl)c3)c2cc1OC [Tivozanib] + Cc1nc(NC(=O)N2CCC[C@H]2C(N)=O)sc1-c1ccnc(C(C)(C)C(F)(F)F)c1 [Alpelisib] (partner 2 µM) , tested on NCI-H1666: 1.01

Note to self: relative viability of COc1cc2nccc(Oc3ccc(NC(=O)Nc4cc(C)on4)c(Cl)c3)c2cc1OC [Tivozanib] + CC1(C)CCC(c2ccc(Cl)cc2)=C(CN2CCN(c3ccc(C(=O)NS(=O)(=O)c4ccc(N[C@H](CCN5CCOCC5)CSc5ccccc5)c(S(=O)(=O)C(F)(F)F)c4)cc3)CC2)C1 [Navitoclax] (partner 0.5 µM) with NCI-H1666 was 0.867

The molecule COc1cc2nccc(Oc3ccc(NC(=O)Nc4cc(C)on4)c(Cl)c3)c2cc1OC [Tivozanib] + CS(=O)(=O)N1CCN(Cc2cc3nc(-c4cccc5[nH]ncc45)nc(N4CCOCC4)c3s2)CC1 [Pictilisib] (partner 1 µM) on NCI-H1666: relative viability was 0.478

NCI-H1666 data for COc1cc2nccc(Oc3ccc(NC(=O)Nc4cc(C)on4)c(Cl)c3)c2cc1OC [Tivozanib] + N=C(N)NC(=N)NCCc1ccccc1 [Phenformin] (partner 250 µM) ; its relative viability: 0.582

# Nc1ccn([C@@H]2O[C@H](CO)[C@@H](O)[C@@H]2O)c(=O)n1 [Cytarabine] + CCNC(=O)c1noc(-c2cc(C(C)C)c(O)cc2O)c1-c1ccc(CN2CCOCC2)cc1 [Luminespib] (partner 0.01 µM) with NCI-H1666: relative viability is 0.579

Lab entry: NCI-H1666 assay, molecule COc1cc2nccc(Oc3ccc(NC(=O)Nc4cc(C)on4)c(Cl)c3)c2cc1OC [Tivozanib] + CS(=O)(=O)CCNCc1ccc(-c2ccc3ncnc(Nc4ccc(OCc5cccc(F)c5)c(Cl)c4)c3c2)o1 [Lapatinib] (partner 2 µM) , relative viability = 0.84

* * *

I'd appreciate it if you could supply relative viability values for the items below.
Tested on: PC-3 [JPC-3]
ASSAY_PROTOCOL: relative viability (nuclei count vs DMSO), 5 days (fraction); higher = more cells survive
MEASUREMENT_CONDITIONS: first compound 0.0002 µM

GET /value?item= CC(=O)O[C@@]12CO[C@@H]1C[C@H](O)[C@@]1(C)C(=O)[C@H](O)C3=C(C)[C@@H](OC(=O)[C@H](O)[C@@H](NC(=O)OC(C)(C)C)c4ccccc4)C[C@@](O)([C@@H](OC(=O)c4ccccc4)[C@H]21)C3(C)C [Docetaxel] + CS(=O)(=O)CCNCc1ccc(-c2ccc3ncnc(Nc4ccc(OCc5cccc(F)c5)c(Cl)c4)c3c2)o1 [Lapatinib] (partner 2 µM) &field=relative viability returns 0.44

Value of relative viability reported for the compound CC(=O)O[C@@]12CO[C@@H]1C[C@H](O)[C@@]1(C)C(=O)[C@H](O)C3=C(C)[C@@H](OC(=O)[C@H](O)[C@@H](NC(=O)OC(C)(C)C)c4ccccc4)C[C@@](O)([C@@H](OC(=O)c4ccccc4)[C@H]21)C3(C)C [Docetaxel] + N=C(N)NC(=N)NCCc1ccccc1 [Phenformin] (partner 250 µM) is 0.484

response.value for CC(=O)O[C@@]12CO[C@@H]1C[C@H](O)[C@@]1(C)C(=O)[C@H](O)C3=C(C)[C@@H](OC(=O)[C@H](O)[C@@H](NC(=O)OC(C)(C)C)c4ccccc4)C[C@@](O)([C@@H](OC(=O)c4ccccc4)[C@H]21)C3(C)C [Docetaxel] + CC(=O)Nc1cccc(-n2c(=O)n(C3CC3)c(=O)c3c(Nc4ccc(I)cc4F)n(C)c(=O)c(C)c32)c1 [Trametinib] (partner 0.02 µM) (field: relative viability) = 0.684

# relative viability (compound: CC(=O)O[C@@]12CO[C@@H]1C[C@H](O)[C@@]1(C)C(=O)[C@H](O)C3=C(C)[C@@H](OC(=O)[C@H](O)[C@@H](NC(=O)OC(C)(C)C)c4ccccc4)C[C@@](O)([C@@H](OC(=O)c4ccccc4)[C@H]21)C3(C)C [Docetaxel] + CC(C)C[C@H](NC(=O)[C@H](Cc1ccccc1)NC(=O)c1cnccn1)B(O)O [Bortezomib] (partner 0.002 µM) ) is 0.794

Per the record, CC(=O)O[C@@]12CO[C@@H]1C[C@H](O)[C@@]1(C)C(=O)[C@H](O)C3=C(C)[C@@H](OC(=O)[C@H](O)[C@@H](NC(=O)OC(C)(C)C)c4ccccc4)C[C@@](O)([C@@H](OC(=O)c4ccccc4)[C@H]21)C3(C)C [Docetaxel] + Nc1ncn([C@H]2C[C@H](O)[C@@H](CO)O2)c(=O)n1 [Decitabine] (partner 2 µM) has relative viability of 0.816

* * *

Test system: NCI-H661
ASSAY_PROTOCOL: relative viability (nuclei count vs DMSO), 5 days (fraction); higher = more cells survive
MEASUREMENT_CONDITIONS: first compound 0.08 µM
PARAMETER: relative viability
Returns: the value as a bare number; no unit string appended.

Form field relative viability, entry O=c1[nH]c2ccccc2n1C1CCN(CCCC(c2ccc(F)cc2)c2ccc(F)cc2)CC1 [Pimozide] + COc1cccc2cc(-c3nc([C@H]4CC[C@H](C(=O)O)CC4)n4ncnc(N)c34)[nH]c12 [OSI-027] (partner 0.5 µM) : 0.691

Per the record, Cc1cnc(-c2cnc(NCCNc3ccc(C#N)cn3)nc2-c2ccc(Cl)cc2Cl)[nH]1 + N=C(N)NC(=N)NCCc1ccccc1 [Phenformin] (partner 250 µM) has relative viability of 0.298

// recorded relative viability for Cc1cnc(-c2cnc(NCCNc3ccc(C#N)cn3)nc2-c2ccc(Cl)cc2Cl)[nH]1 + O=C(c1cc(Cc2n[nH]c(=O)c3ccccc23)ccc1F)N1CCN(C(=O)C2CC2)CC1 [Olaparib] (partner 8 µM) : 0.736

* * *

Tested on: PC-14
ASSAY_PROTOCOL: relative viability (nuclei count vs DMSO), 5 days (fraction); higher = more cells survive
MEASUREMENT_CONDITIONS: first compound 4 µM
Please provide measured relative viability for the entries that follow.

// compound Cc1sc2c(c1C)C(c1ccc(Cl)cc1)=N[C@@H](CC(=O)OC(C)(C)C)c1nnc(C)n1-2 [JQ1] + CS(=O)(=O)CCNCc1ccc(-c2ccc3ncnc(Nc4ccc(OCc5cccc(F)c5)c(Cl)c4)c3c2)o1 [Lapatinib] (partner 2 µM) , assay PC-14, relative viability value: 0.211

# lookup: Cc1sc2c(c1C)C(c1ccc(Cl)cc1)=N[C@@H](CC(=O)OC(C)(C)C)c1nnc(C)n1-2 [JQ1] + N=C(N)NC(=N)NCCc1ccccc1 [Phenformin] (partner 250 µM) on PC-14, relative viability = 0.167

Test item Cc1sc2c(c1C)C(c1ccc(Cl)cc1)=N[C@@H](CC(=O)OC(C)(C)C)c1nnc(C)n1-2 [JQ1] + O=C(c1cc(Cc2n[nH]c(=O)c3ccccc23)ccc1F)N1CCN(C(=O)C2CC2)CC1 [Olaparib] (partner 8 µM) ; PC-14; reported relative viability was 0.0723

Measured relative viability for this entry Cc1sc2c(c1C)C(c1ccc(Cl)cc1)=N[C@@H](CC(=O)OC(C)(C)C)c1nnc(C)n1-2 [JQ1] + CC(C)C[C@H](NC(=O)[C@H](Cc1ccccc1)NC(=O)c1cnccn1)B(O)O [Bortezomib] (partner 0.002 µM) on PC-14: 0.201

Reported relative viability (PC-14) for entry Cc1sc2c(c1C)C(c1ccc(Cl)cc1)=N[C@@H](CC(=O)OC(C)(C)C)c1nnc(C)n1-2 [JQ1] + CS(=O)(=O)N1CCN(Cc2cc3nc(-c4cccc5[nH]ncc45)nc(N4CCOCC4)c3s2)CC1 [Pictilisib] (partner 1 µM) is 0.122

Reported PC-14 relative viability for item Cc1sc2c(c1C)C(c1ccc(Cl)cc1)=N[C@@H](CC(=O)OC(C)(C)C)c1nnc(C)n1-2 [JQ1] + O=C(CCCCCCC(=O)Nc1ccccc1)NO [Vorinostat] (partner 1 µM) was 0.16
